Values were extracted from patent US20260015350A1.

Test system: KRas-mediated phosphorylation of ERK in H460 cells
Test: Inhibition of KRas-mediated phosphorylation of ERK (Cisbio HTRF pERK), H460 cells
Assay type: cell-based
Details: Homo sapiens, NCI-H460, HTRF pERK
Below, each entry is listed alongside its reported IC50.
Could you give me the number in nM? Just the number is fine.

Study these solved cases before continuing.
- CCc1c(F)ccc2cc3[nH]ncc3c(-c3ncc4c(N5C[C@@H]6C[C@H](C5)[C@H](O)C6)nc(OC[C@@]56CCCN5C[C@H](F)C6)nc4c3F)c12 [Example 825]: 98
- CN(C)C(=O)c1cc2n(n1)CCCN(c1nc(OC[C@@]34CCCN3C[C@H](F)C4)nc3c(F)c(-c4c(C5CC5)c(Cl)cc5[nH]ncc45)ncc13)C2 [Example 882]: 4460
- C[C@@H]1C[C@@H]1c1c(Cl)cc(O)cc1-c1ncc2c(N3CCC[C@]4(C3)NC(=O)NC4=O)nc(OCC34CCCN3C/C(=C\F)C4)nc2c1F (stereo partly drawn) [Example 937]: 36
- CCc1c(F)ccc2cc(O)cc(-c3ncc4c(N5CCC[C@@](C)(O)C5)nc(OC[C@@]56CCCN5[C@H](COC(=O)N5CCCC5)CC6)nc4c3F)c12 [Example 719]: 8
- CCc1cccc2cc3[nH]ncc3c(-c3ncc4c(N5C[C@@H]6C[C@H](C5)[C@H](O)C6)nc(OC[C@@]56CCCN5C[C@H](F)C6)nc4c3F)c12 [Example 767]: 64

# context switch: different molecule, same IC50
Ask: Please respond with reported IC50 (system KRas-mediated phosphorylation of ERK in H460 cells) for C=C1CN2CCCC2(COc2nc(N3C[C@@H]4C[C@H](C3)[C@H](O)C4)c3cnc(-c4cc(O)cc5ccc(F)c(CC)c45)c(F)c3n2)C1 (stereo partly drawn) [Example 800] .
Reply: 3

====

Biological target: KRas^G12C (Homo sapiens, UniProt P01116, G12C)
Construct: Biotinylated KRas (corresponding to amino acids 1-169, produced at Accelegan Inc.); biotin (biotinylated); purchased Accelegan Inc
Sequence (P01116 1-169 isoform P01116-2 G12C): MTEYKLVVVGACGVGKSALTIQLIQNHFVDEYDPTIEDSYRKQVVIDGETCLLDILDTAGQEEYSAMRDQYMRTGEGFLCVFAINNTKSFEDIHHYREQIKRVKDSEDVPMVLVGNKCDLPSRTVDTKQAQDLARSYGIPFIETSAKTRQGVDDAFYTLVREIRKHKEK
Assay: KRas binding assay (TR-FRET tracer displacement), KRas G12C
Settings: single point, 10 nM compound, TR-FRET
Observed property: inhibition at 0.01 µM (%)
Numbers only; they are read as %.

* Oc1cc(-c2ncc3c(N4CCCC5(CCO5)C4)nc(OC[C@@]45CCCN4C[C@H](F)C5)nc3c2F)c2c(Cl)c(F)ccc2c1 (stereo partly drawn) [Example 773] | 95
* CCc1c(F)ccc2cc(O)cc(-c3ncc4c(N5CCCC6(CC(O)C6)C5)nc(OCC5(CN(C)C)CC5)nc4c3F)c12 (stereo not drawn) [Example 698] | 91

Okay, now this compound:
Ask: Provide only the value of recorded inhibition at 0.01 µM for CCc1c(F)ccc2cc(O)cc(-c3ncc4c(N5CCCC6(CNS(=O)(=O)N6)C5)nc(OC[C@]56CCCN5[C@H](COC(=O)N(C)C)CC6)nc4c3F)c12 (stereo partly drawn) [Example 716]
Reply: 97

====

Biological target: KRas^G12C (Homo sapiens, UniProt P01116, G12C)
Construct: Biotinylated KRas (corresponding to amino acids 1-169, produced at Accelegan Inc.); biotin (biotinylated); purchased Accelegan Inc
Test: KRas binding assay (TR-FRET tracer displacement), KRas G12C
Conditions: TR-FRET tracer displacement, KRas G12C
Recorded measurements of IC50, one per entry
Respond numerically; units are nM and should not be typed.

Ask: Consider the compound CN(C)C(=O)c1cc2n(n1)CCCN(c1nc(OC[C@@]34CCCN3C[C@H](F)C4)nc3c(F)c(-c4c(C5CC5)c(Cl)cc5[nH]ncc45)ncc13)C2 [Example 882] . State its measured IC50.
Reply: 5

Ask: Retrieve IC50 measured for Cc1cc2[nH]ncc2c(-c2ncc3c(N4CC5CC(O)C(C5)C4)nc(OCC45CCCN4CCC5)nc3c2F)c1C (stereo not drawn) [Example 725] and print it.
Reply: 812
